- tested.system: Protein translocase subunit SecA (Escherichia coli (strain K12))
- measurement.protocol: Assay to Identify E. coli SecA ATPase Inhibitors
- Format: functional
- Design: scale not given: direction of the effect not stated beside the values
- run.conditions: 30 µM
Potency and affinity values are given separately.
reported.property: Percent Effect (%)
Numeric only. Scale: %

Prompt: Form entry - test system: Protein translocase subunit SecA (Escherichia coli (strain K12)); read-out: Percent Effect; molecule: CCn1cc(CN2CCCN(C(=O)CCc3ccncc3)CC2)cn1
Completion: -3.49

Prompt: Form entry - test system: Protein translocase subunit SecA (Escherichia coli (strain K12)); read-out: Percent Effect; molecule: CC(C)(C)C(=O)NCCn1ccc(-c2ccncc2)n1
Completion: -2.96

Prompt: Form entry - test system: Protein translocase subunit SecA (Escherichia coli (strain K12)); read-out: Percent Effect; molecule: Cc1ncsc1C(=O)N(C)Cc1ccncc1
Completion: -4.37

Prompt: Form entry - test system: Protein translocase subunit SecA (Escherichia coli (strain K12)); read-out: Percent Effect; molecule: CC(=O)Nc1nc(C(=O)N2CCCC(c3cc(C)[nH]n3)C2)cs1 (configuration not stated)
Completion: -6.81

Prompt: Form entry - test system: Protein translocase subunit SecA (Escherichia coli (strain K12)); read-out: Percent Effect; molecule: O=C(c1ccc(O)c(Cl)c1)N1CCC(c2n[nH]c(C3CC3)n2)CC1
Completion: -6.1

Prompt: Form entry - test system: Protein translocase subunit SecA (Escherichia coli (strain K12)); read-out: Percent Effect; molecule: Cc1noc(CN2CCC(c3ccnn3CCO)CC2)n1
Completion: -3.55

Prompt: Form entry - test system: Protein translocase subunit SecA (Escherichia coli (strain K12)); read-out: Percent Effect; molecule: CCCc1nc(N2CCN(CC)CC2)c2c(n1)c(C)nn2CC
Completion: -0.47

Prompt: Form entry - test system: Protein translocase subunit SecA (Escherichia coli (strain K12)); read-out: Percent Effect; molecule: COc1cnc(N2CCC(Oc3ccccc3OC)(C(=O)O)CC2)nc1
Completion: -5.13

Prompt: Form entry - test system: Protein translocase subunit SecA (Escherichia coli (strain K12)); read-out: Percent Effect; molecule: COCCN(C)C[C@@H]1CN(C(=O)c2cccc(C(F)(F)F)c2)C[C@@H]1CO
Completion: -0.782

Prompt: Form entry - test system: Protein translocase subunit SecA (Escherichia coli (strain K12)); read-out: Percent Effect; molecule: CC(CNC(=O)Nc1cn[nH]c1)N1CCc2ccccc2C1 (configuration not stated)
Completion: -4.87

Prompt: Form entry - test system: Protein translocase subunit SecA (Escherichia coli (strain K12)); read-out: Percent Effect; molecule: Cc1oncc1C(=O)N1CCC2(CC1)CC(c1ccccc1)C(=O)N2C (configuration not stated)
Completion: -3.51

Prompt: Form entry - test system: Protein translocase subunit SecA (Escherichia coli (strain K12)); read-out: Percent Effect; molecule: Cc1occc1C(=O)N1CCOCC2(CCN(Cc3nccs3)C2)C1 (configuration not stated)
Completion: -0.601

Prompt: Form entry - test system: Protein translocase subunit SecA (Escherichia coli (strain K12)); read-out: Percent Effect; molecule: CCc1nccc(CN2CCCC(c3nn(C)c(=O)n3CC)C2)n1 (configuration not stated)
Completion: -3.27

Prompt: Form entry - test system: Protein translocase subunit SecA (Escherichia coli (strain K12)); read-out: Percent Effect; molecule: CC(C)(C)n1cc(C(=O)N2CCCN(Cc3cccs3)CC2)cn1
Completion: -1.01

Prompt: Form entry - test system: Protein translocase subunit SecA (Escherichia coli (strain K12)); read-out: Percent Effect; molecule: CN(Cc1csc(-c2cccs2)n1)C(=O)CCn1ccccc1=O
Completion: -4.95

Prompt: Form entry - test system: Protein translocase subunit SecA (Escherichia coli (strain K12)); read-out: Percent Effect; molecule: Cn1c(Nc2cn[nH]c2)c(C#N)c(=O)n(C)c1=O
Completion: -7.22

Prompt: Form entry - test system: Protein translocase subunit SecA (Escherichia coli (strain K12)); read-out: Percent Effect; molecule: O=c1oc(-c2cccs2)nn1CC(O)c1ccc(F)cc1 (configuration not stated)
Completion: -3.82

Prompt: Form entry - test system: Protein translocase subunit SecA (Escherichia coli (strain K12)); read-out: Percent Effect; molecule: c1ccc(Oc2cc(CNCC3CNc4ccnn4C3)ccn2)cc1 (configuration not stated)
Completion: -2.02

Prompt: Form entry - test system: Protein translocase subunit SecA (Escherichia coli (strain K12)); read-out: Percent Effect; molecule: Cn1cc(C(=O)CC2CCCN2C(=O)c2n[nH]c3ccccc23)cn1 (configuration not stated)
Completion: -2.35
